Recorded values, source ChEMBL document CHEMBL1137278.

Target: Tyrosine-protein kinase Fyn (Mus musculus)
Sequence (P39688 whole entry): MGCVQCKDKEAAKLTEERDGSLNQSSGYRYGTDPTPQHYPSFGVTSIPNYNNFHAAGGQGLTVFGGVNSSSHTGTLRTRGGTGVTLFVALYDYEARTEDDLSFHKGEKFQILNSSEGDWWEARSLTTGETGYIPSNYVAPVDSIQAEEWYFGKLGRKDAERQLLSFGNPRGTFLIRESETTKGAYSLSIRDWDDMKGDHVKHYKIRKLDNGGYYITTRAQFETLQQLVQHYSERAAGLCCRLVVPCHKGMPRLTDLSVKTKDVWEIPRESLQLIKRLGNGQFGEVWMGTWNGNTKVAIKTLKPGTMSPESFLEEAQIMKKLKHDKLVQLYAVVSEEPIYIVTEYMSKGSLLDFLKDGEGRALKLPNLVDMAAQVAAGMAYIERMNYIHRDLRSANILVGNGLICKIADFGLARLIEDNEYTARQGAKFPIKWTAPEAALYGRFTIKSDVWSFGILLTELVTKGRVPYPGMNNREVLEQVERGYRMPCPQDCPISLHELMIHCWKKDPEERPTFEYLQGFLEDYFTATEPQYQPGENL
ENDPOINT: pIC50
To interpret pIC50, take it as minus log10 of a concentration measured in moles per litre.

Record lookup: for Tyrosine-protein kinase Fyn (Mus musculus), what pIC50 belongs to Cc1cc(O)cc(C)c1/C=C/c1cncc(-c2nn[nH]n2)c1 ?
7.40

* * *

Molecular target: MAP kinase p38 (Homo sapiens) (UniProt O15264+Q15759+Q16539+P53778)
Assay: Inhibition of p38
Assay type: protein assay
Calls of active or inactive are those of the source. No cut-off for these calls is given here.
ENDPOINT: Activity

Solved cases below.
* Cc1cc(O)cc(C)c1/C=C/c1cncc(C(=O)O)c1 | inactive
* Cc1cc(O)cc(C)c1/C=C/c1cncc(-c2nn[nH]n2)c1 | inactive
* CNC(=O)Oc1cc(C)c(/C=C/c2cncc(C(=O)O)c2)c(C)c1 | inactive
* CNC(=O)Oc1cc(C)c(/C=C/c2cncc(C(N)=O)c2)c(C)c1 | inactive
* Cc1cc(-c2ccccn2)cc(C)c1/C=C/c1cncc(-c2nn[nH]n2)c1 | inactive

# ---- query molecule ----
I would be grateful if you could share the reported Activity for Cc1cccc(C)c1/C=C/c1cncc(-c2nn[nH]n2)c1 .
inactive
